Recorded values, source the supplement of paper PMC9170038.

Tested on: MS2 coat protein
test_protocol: apparent KD of MS2 coat protein; designed switch direction (-1 OFF switch, 1 ON switch): -1; higher = weaker reporter binding
cond: input ligand: FMN 200 uM
What apparent KD of MS2 coat protein was measured for each of the following?

Request: // fetch apparent KD of MS2 coat protein given entry GAUGAGGGAGUGAGGAUAUAUACCGGCUCACCGGAGUAGAAGGCACAUGAGGAUCACCCAUGUGACCUUAACCU [Eternabot (L2) Solution 92] (Eterna round: R97, puzzle: Brourd's mod of Exclusion 4)
Response: 0.0153 µM

Request: Item GUCAGCUCGUGAGGAUAUACAUGAGGAUCACCCAUGUGGUCAAUAGCAGCUUCGGCUGCAAUAAUGUAGAAGGCACGAGCUGAC [ENG2/8-D] (Eterna round: R96, puzzle: Exclusion NG 2) : provide apparent KD of MS2 coat protein
Response: 0.0574 µM

Request: Input CCUCUACAUGAGGAUCACCCAUGUGAGGAUAUAGACCGGCCUAACGCGGGCUCGGGAGCUAGAAGGCACAUAGA [EX1 C.7] (Eterna round: R97, puzzle: Exclusion 1) , output reported apparent KD of MS2 coat protein.
Response: 0.0708 µM

Request: Supply recorded apparent KD of MS2 coat protein for UUCGUGCAGCUUUGCUGUACGAGUACAUGAGGAUCACCCAUGUAGGAUAUGGUACGCUUUGCGUGCCAGAAGGACGUGCGUUAG [salish99_ExNG3_r04_002] (Eterna round: R96, puzzle: Exclusion NG 3) here.
Response: 0.0734 µM

Request: Report measured apparent KD of MS2 coat protein; entry is GGAUCGAGUGUGAGGAUAUACCUAUGGAUACAUAGGUAGAAGGCACAUGAGGAUCACCCAUGUCCUAACGGUCC [Eli bmx4 4.15] (Eterna round: R97, puzzle: Brourd's mod of Exclusion 4)
Response: 0.933 µM

###

Tested on: MS2 coat protein
test_protocol: apparent KD of MS2 coat protein; designed switch direction (-1 OFF switch, 1 ON switch): 1; higher = weaker reporter binding
cond: input ligand: FMN 200 uM
Give measured apparent KD of MS2 coat protein for each item. Keep answers brief.
Number plus unit, in that order.

Request: Fill: apparent KD of MS2 coat protein (MS2 coat protein) for this sequence CCAAUGUACAAUUUAGAUCUACAUGAGGAUCACCCAUGUACAGAGGAUAUCAGCUCGAAUAGAGCUGAGAAGGCUGAAUUAAUU [SSNG3/3-A1] (Eterna round: R96, puzzle: Same State NG 3)
Response: 0.0882 µM

Request: Find apparent KD of MS2 coat protein for ACAUGAGGAUCACCCAUGUCGCUGGUAUCGGAUACGUAUUACGAGGAUAUGCCGAGGAGUUCCGAGUAGAAGGUGUAAUACAUG [Eternabot solution 40] (Eterna round: R96, puzzle: Same State NG 3) on MS2 coat protein and write it down.
Response: 0.178 µM

Request: Param request: apparent KD of MS2 coat protein | system MS2 coat protein | item AAAAGACAAAGAAAACAUGAGGAUCACCCAUGUGGCGUGACACAGGAUAUCCACGCUACAUUGCAGGAGAAGGGUGACAUGCAC [Ensora] (Eterna round: R96, puzzle: Same State NG 3)
Response: 0.484 µM

Request: Param request: apparent KD of MS2 coat protein | system MS2 coat protein | item ACAUGAGAUAGAGGAUAUGUUGUACCUACAUGUGACAUGAGGAUCACCCAUGUGGUAAGUAUGAUACAGAAGGCUAAGAUAUGU [Equivalance 60 - Jieux - Same State NG 2] (Eterna round: R96, puzzle: Same State NG 2)
Response: 0.0165 µM

Request: Give reported apparent KD of MS2 coat protein for GUUACAUGAGGAUCACCCAUGUAUGUGUGGGAGUAAGUGUCUUAGGAUAUCUAGUAUUUAAUUUGAGAGAAGGAAGAUUGUUGU [JMF's solution 70] (Eterna round: R96, puzzle: Same State NG 3) (MS2 coat protein)
Response: 0.138 µM

###

Test system: MS2 coat protein
test_protocol: apparent KD of MS2 coat protein; designed switch direction (-1 OFF switch, 1 ON switch): 1; higher = weaker reporter binding
cond: Eterna round: R95; input ligand: FMN 200 uM
Kindly state apparent KD of MS2 coat protein for each of the entries shown.
Output spec: scalar in nM, unitless text.

Request: Answer with the recorded apparent KD of MS2 coat protein for the sequence listed here: AUAAAACAUGAGGAUCACCCAUGUCUCCAAAGUCGAGGAUAUGGGCAAAUAAUAUAAGAACCAGAAGGCGAAUAAU [SS1 Teenbexe 2] (puzzle: Same State 1)
Response: 177

Request: Tell us which apparent KD of MS2 coat protein value is on record for AAAAUACAUGAGGAUCACCCAUGUCUAAAGAACGGAGGAUAUAGGCGUGCAAAACACGCACUAGAAGGCUGGGUGC [Eserus] (puzzle: Same State 1)
Response: 144

Request: # return recorded apparent KD of MS2 coat protein for input UCUUGGUUUUUGCUCGUUUUUUGUGUUGAACAUGAGGAUCACCCAUGUAUUGUACGGUCCGGUUUGGUAAUGGUCCA [JMF 9] (puzzle: Sensor for hsa-mir-208a)
Response: 55.7

Request: Tell us which apparent KD of MS2 coat protein value is on record for UAUAAACAUGAGGAUCACCCAUGUAAUAAUAUGGGAGGAUAUCAGAUUUAAUUUAAUUUAUGAGAAGGCCUAAUAU [Mat - Same State 1 - Mod of Eli - D66] (puzzle: Same State 1)
Response: 34.3

Request: Identify measured apparent KD of MS2 coat protein corresponding to CGAUGAUACUUAGGAAAGAGAGUAGAGGAACAUGAGGAUCACCCAUGUAUGAGCUUUUUGCUCGUCAUGAACAGGAA [JR_SHM208a_Sub008] (puzzle: Sensor for hsa-mir-208a)
Response: 88.6

###

Provide the reported apparent KD of MS2 coat protein of each item.
Tested on: MS2 coat protein
test_protocol: apparent KD of MS2 coat protein; designed switch direction (-1 OFF switch, 1 ON switch): -1; higher = weaker reporter binding
cond: input ligand: FMN 200 uM
Show the value, then the unit it is measured in.

Request: Specify the recorded apparent KD of MS2 coat protein for UUUAUGUCAGGAUAUGAGUAGUAGAACAAUAGUACUACUACUCAGAAGGGACAUGAGGAUCACCCAUGUGCCUC [Fiskers Ex 4 Super stable 44 mod 22] (Eterna round: R96, puzzle: Exclusion 4) , system: MS2 coat protein.
Response: 0.326 µM

Request: Enter recorded apparent KD of MS2 coat protein with MS2 coat protein for CAAAGUUGGUAAGGAUAUCCUACAUUAUUCUGACCCGUGCAAGCUACAUGAGGAUCACCCAUGUGGGAGAAGGUGCGUUAAAGU [Design 3] (Eterna round: R96, puzzle: Exclusion NG 2) here.
Response: 0.0234 µM

Request: Fetch value of apparent KD of MS2 coat protein on MS2 coat protein for GCAGGUCAAGGAUAUACAUGAGGAUCACCCAUGUAGAUCAACCAGCGAUAGCUGGAAUGUAGAAGGUGACCUGC [E3/5-C2] (Eterna round: R97, puzzle: Exclusion 3) .
Response: 0.0676 µM

###

Field: apparent KD of MS2 coat protein. Provide a value for each of the sequences that follow.
Tested on: MS2 coat protein
test_protocol: apparent KD of MS2 coat protein; designed switch direction (-1 OFF switch, 1 ON switch): -1; higher = weaker reporter binding
cond: Eterna round: R95; input ligand: microRNA oligo, concentration not stated
Entry rule: numbers only, all in nM.

Request: Write down apparent KD of MS2 coat protein measured for item UUUAUGUCAGGAUAUGAGUAGUAGAACAAUAGUACUACUACUCAGAAGGGACAUGAGGAUCACCCAUGUGCCUC [Fiskers Ex 4 Super stable 44 mod 22] (puzzle: Exclusion 4)
Response: 33.6

Request: Hello, please tell me recorded apparent KD of MS2 coat protein for this one: CUGGUCCGAGGAUAUAUUAUGUGAUACAUGAGGAUCACCCAUGUUAUAUGAUGGAUGUUAGUAGAAGGCGGACUAC [salish99_ex5_r3_001] (puzzle: Exclusion 5)
Response: 69.9

Request: Give apparent KD of MS2 coat protein for the following sequence: AGUAACCGUCACGAAAGUGAUGGUUACAUAAGCAUAUGUACAUGAGGAUCACCCAUGUCCUCAACUGCUCGUUUUAU [Sensor 3 - 56] (puzzle: Sensor v3, turn-off variant 2)
Response: 612

Request: In one line, give reported apparent KD of MS2 coat protein of the entry AGUACUAACACGUCAGUGUUAGUACAAUAAGCUUGUGAAACAUGAGGAUCACCCAUGUCCUCAUAAGCUCGUCUUAU [salish99_TOv2_r3_062] (puzzle: Sensor v3, turn-off variant 2) .
Response: 602

Request: Fill in apparent KD of MS2 coat protein for record CGUACUCAAGUGAGGAUAUUGUCUCGGAUACGAAACAAGAAGGCACAUGAGGAUCACCCAUGUAGAGAGUACGA [Malc #30 mod 1] (puzzle: Brourd's mod of Exclusion 4)
Response: 14.5

Request: Using known records, supply apparent KD of MS2 coat protein for CUCAUGUGAGGAUAUGUGAUCUGCCUUCUAUGUAGAUGAUCACAGAAGGCACAUGAGGAUCACCCAUGUAGAUC [Ex4 - 3 - 27] (puzzle: Exclusion 4)
Response: 69.2

Request: Give the reported apparent KD of MS2 coat protein for this sequence. GGUACUAACACGAUAGUGUUAGUACAAUAAGCUUGUGUUACAUGAGGAUCACCCAUGUCCUCAUAAGCUCGUCUUAU [Mat - Sensor v3 - Turn-off var 2 - D56] (puzzle: Sensor v3, turn-off variant 2)
Response: 102

Request: Input UGGGUUCUCCAUGGAAGUAACAUGAGGAUCACCCAUGUAGGGCAAGUUUUUUGCUCGUCAUAGGCCGUGGGUUUGGA [JR_SV3TOV1_Sub019] (puzzle: Sensor v3, turn-off variant 1) , output reported apparent KD of MS2 coat protein.
Response: 248

Request: Read off the recorded apparent KD of MS2 coat protein for GUGAGGUAAGGAUAUAGGAGAAAAGAUAAGGUAUGAGAGUUCUAGAAGGUACAUGAGGAUCACCCAUGUUAGGG [JR_Exclu4_Sub086] (puzzle: Exclusion 4)
Response: 257

Request: Determine its reported apparent KD of MS2 coat protein: CAGUACUGAGGAUAUACAUGAGGAUCACCCAUGUGUUCCUGCUAGGAAACUAGCAAAAGUAGAAGGCAGUACUG [salish99_ex3_r3_098x] (puzzle: Exclusion 3)
Response: 28.5
